Hello, the source for this data is patent US9884048B2, in case you need it.

Each entry below carries its recorded IC50.
Biological target: phosphorylated active hERK2 enzyme (Homo sapiens (Human), UniProt P28482)
Sequence (P28482 whole entry): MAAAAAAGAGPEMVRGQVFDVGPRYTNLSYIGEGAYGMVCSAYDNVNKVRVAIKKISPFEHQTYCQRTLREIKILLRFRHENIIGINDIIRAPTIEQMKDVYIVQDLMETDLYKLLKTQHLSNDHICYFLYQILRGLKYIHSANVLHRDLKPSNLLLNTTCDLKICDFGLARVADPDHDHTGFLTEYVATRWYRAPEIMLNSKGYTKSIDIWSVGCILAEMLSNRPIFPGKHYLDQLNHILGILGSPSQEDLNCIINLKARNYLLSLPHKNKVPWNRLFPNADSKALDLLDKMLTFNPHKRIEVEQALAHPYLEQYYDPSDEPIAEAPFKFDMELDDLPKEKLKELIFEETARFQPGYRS
Details: read-out: ERK2 IC50; IMAP-FP assay; 0.5 nM hERK2, 30 μM ATP; 10 point titration, 3 μM starting concentration
experimental.endpoint: IC50 (nM)

>>> df
                                    compound  result_value
 0  Cn1cc(-n2ncc3cc(NC(=O)NCc4cccc(Cl)c4)ncc32)cn1          15.7
 1  Cc1cc(-n2ncc3cc(NC(=O)NCCOc4ccc(F)cc4)ncc32)ccn1          15.9
 2  O=C(NCc1ccc(Cl)cc1Cl)Nc1cc2cnn(-c3ccncc3)c2cn1            26
 3  C[C@@H](NC(=O)Nc1cc2cnn(C(C)(C)C)c2c(CO)n1)c1ccccc1          1260
 4  Cc1cc(-n2ncc3cc(NC(=O)N[C@H]4[C@H](c5ccccc5)CN(C)C45COC5)ncc32)ccn1 [Example 183]          12.2
 5  Cc1cc(-n2ncc3cc(NC(=O)NC4COc5ccccc54)ncc32)ccn1 (stereo not drawn)           215
 6  Cc1cc(-n2ncc3cc(NC(=O)NC4CCCC(c5ccccc5)C4)ncc32)ccn1 (stereo not drawn)          2.85
 7  Cc1cc(-n2ncc3cc(NC(=O)N[C@H]4CN(C)C[C@@H]4CCc4ccccc4)ncc32)ccn1 [Example 185]         0.182
 8  Cc1cc(-n2ncc3cc(NC(=O)N[C@@H]4CN(C)C5(COC5)[C@H]4c4ccccc4)ncc32)ccn1         0.689
 9  Cc1cc(-n2ncc3cc(NC(=O)NC4CCC(c5ccc(F)cc5)C4)ncc32)ccn1 (stereo not drawn)           196
10  C[C@@H](NC(=O)Nc1cc2cnn(C)c2cn1)c1ccccc1           920
11  CCO[C@H]1CN(Cc2c(F)cccc2F)C[C@@H]1NC(=O)Nc1cc2cnn(-c3ccnc(C)c3)c2cn1          45.3
12  Cc1cc(-n2ncc3cc(NC(=O)NC4CCCC(c5ccc(F)cc5)C4)ncc32)ccn1 (stereo not drawn)          11.6
13  Cc1cc(-n2ncc3cc(NC(=O)N[C@H]4CN(C)C[C@@H]4[C@@H]4CCCOC4)ncc32)ccn1           140
14  Cc1cc(-n2ncc3cc(NC(=O)NC(CCN(C)C)c4ccccc4)ncc32)ccn1 (stereo not drawn)           2.7
15  Cc1cc(-n2ncc3cc(NC(=O)NC4CC(=O)N(C)C4)ncc32)ccn1 (stereo not drawn)           181
16  Cc1cc(-n2ncc3cc(NC(=O)N[C@H](C)c4ccc(F)cc4)ncc32)ccn1          2.28
17  Cc1cc(-n2ncc3cc(NC(=O)NC[C@H]4CCN(C)C4)ncc32)ccn1          36.6
18  Cc1cc(-n2ncc3cc(NC(=O)NCCNCc4ccccc4)ncc32)ccn1          19.1
19    COCCNC(=O)Nc1cc2cnn(-c3ccnc(C)c3)c2cn1          81.8
20  COc1cccc(F)c1CN1CCC[C@@H](NC(=O)Nc2cc3cnn(-c4ccnc(C)c4)c3cn2)C1         0.524
21  Cc1cc(-n2ncc3cc(NC(=O)NCCc4c(C)noc4C)ncc32)ccn1          16.4
22  Cc1cc(-n2ncc3cc(NC(=O)NC4CCCN(Cc5cccnc5)C4)ncc32)ccn1 (stereo not drawn)           115
23  CCCn1ncc2cc(NC(=O)N[C@H](C)c3ccccc3)nc(CO)c21          43.7
24  CO[C@H]1CN(C)C[C@@H]1NC(=O)Nc1cc2cnn(-c3ccnc(C)c3)c2cn1 [Example 291]          46.4
25  CNC(=O)c1ccc(CNC(=O)Nc2cc3cnn(-c4ccnc(C)c4)c3cn2)cc1           801
26  Cc1cc(-n2ncc3cc(NC(=O)NC4CCC(c5ccccc5)C4)ncc32)ccn1 (stereo not drawn)          37.1
27  Cc1cc(-n2ncc3cc(NC(=O)N[C@@H]4CN(C)C[C@H]4c4ccccc4)ncc32)ccn1         0.983
28  O=C(NCc1ccc(F)cc1)Nc1cc2cnn(-c3ccncc3)c2cn1           1.8
29  C[C@@H](NC(=O)Nc1cc2cnn(CC(F)(F)F)c2c(CO)n1)c1ccccc1           175
30  CC(C)Cn1ncc2cc(NC(=O)N[C@H](C)c3ccccc3)nc(CO)c21           178
31  Cc1cc(-n2ncc3c(F)c(NC(=O)N[C@H](C)c4ccccc4)ncc32)ccn1          8.26
32  Cc1cc(-n2ncc3cc(NC(=O)NC[C@@H]4CCNC4)ncc32)ccn1          23.4
